- Target desc: Tyrosine-protein phosphatase non-receptor type 1 (Homo sapiens, UniProt P18031)
- Sequence (P18031 whole entry): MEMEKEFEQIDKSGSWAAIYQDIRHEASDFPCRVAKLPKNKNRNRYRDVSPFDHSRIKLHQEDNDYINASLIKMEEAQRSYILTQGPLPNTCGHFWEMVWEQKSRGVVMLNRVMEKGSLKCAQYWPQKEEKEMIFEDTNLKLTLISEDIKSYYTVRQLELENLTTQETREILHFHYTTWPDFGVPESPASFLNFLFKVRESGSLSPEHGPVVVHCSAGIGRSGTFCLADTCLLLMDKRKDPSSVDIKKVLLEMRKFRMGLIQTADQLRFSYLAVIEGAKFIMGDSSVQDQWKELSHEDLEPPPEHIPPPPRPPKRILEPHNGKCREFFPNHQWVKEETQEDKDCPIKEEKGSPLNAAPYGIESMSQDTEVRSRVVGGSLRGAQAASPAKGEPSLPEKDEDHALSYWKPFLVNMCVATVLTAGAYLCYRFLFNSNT
- Assay text: Inhibition of PTP1B (unknown origin)-mediated pNPP hydrolysis to 4-nitrophenol after 60 mins by spectrophotometric analysis
Property label: Ki (µM)

O=S(=O)(Nc1ccc(F)cc1)C(Cc1ccc(O)c(O)c1)c1nc2ccccc2[nH]1 (centres undefined)    211

[A] O=C(O)CN(CC(=O)O)S(=O)(=O)C(Cc1ccc(NC(=O)C(=O)O)cc1)c1nc2ccccc2o1 (centres undefined)
[B] O=C(O)COc1ccc(CC(c2nc3ccccc3[nH]2)S(=O)(=O)Nc2ccc(F)cc2)cc1O (centres undefined)
### Prompt Hi team, can someone confirm which has the larger Ki: A or B ? Thanks. Reply briefly: the label of your chosen item.
### Response A
(A: 235 µM, B: 162 µM)

[P] O=C(O)C(=O)Nc1ccc(CC(c2nc3ccccc3o2)S(=O)(=O)NC(=O)c2ccc(Cl)cc2)cc1 (centres undefined)
[Q] O=C(O)C(=O)Nc1ccc(CC(c2nc3ccccc3o2)S(=O)(=O)NCCc2ccc(Cl)cc2)cc1 (centres undefined)
### Prompt Hi team, can someone confirm which has the larger Ki: P or Q ? Thanks. Reply briefly: the label of your chosen item.
### Response P

Value source: ChEMBL document CHEMBL2375266
